test system: MCF10A; assay: percent viability (nuclei count relative to siNT); higher = more viable cells; details: 20 nM; 72 h
readoutType: percent viability (%)
Write down the numeric answer in % and omit the unit.

Example sequences with recorded percent viability:
{"sequenceRecord": "AAAUUAUUGUACAUCGGAUGAG [hsa-miR-944]", "unitOfMeasure": "%", "percent viability": 33.3}
{"sequenceRecord": "AGGCUGCGGAAUUCAGGAC [hsa-miR-604]", "unitOfMeasure": "%", "percent viability": 25.6}
{"sequenceRecord": "CUAUACAGUCUACUGUCUUUCC [hsa-let-7f-2-3p]", "unitOfMeasure": "%", "percent viability": 70.8}
{"sequenceRecord": "ACAGCCCAGCAGUUAUCACGGG [hsa-miR-5685]", "unitOfMeasure": "%", "percent viability": 57.8}
{"sequenceRecord": "CAGUGCAAUGAUAUUGUCAAAGC [hsa-miR-301b]", "unitOfMeasure": "%", "percent viability": 95.6}

get_value(item= UCAGGCCAGGCACAGUGGCUCA [hsa-miR-1972] , readout=percent viability) returns 30.6

get_value(item= ACUGGACUUGGAGUCAGAAGGC [hsa-miR-378a-3p] , readout=percent viability) returns 66.7

get_value(item= AGGAAUGUUCCUUCUUUGCC [hsa-miR-613] , readout=percent viability) returns 44.4

get_value(item= GUGGUUAUCCCUGUCCUGUUCG [hsa-miR-487b-5p] , readout=percent viability) returns 37.4

get_value(item= UGGGGCUCAGCGAGUUU [hsa-miR-4283] , readout=percent viability) returns 17.3

get_value(item= UCCUGCCUUCCUCUGCACCAG [hsa-miR-6747-3p] , readout=percent viability) returns 27

get_value(item= AACUCUAGCCUGAGCAACAG [hsa-miR-5684] , readout=percent viability) returns 40.5
